Molecular target: human thrombin (Homo sapiens)
Assay: Thrombin amidase inhibition (Kass), chromogenic substrate
Type: biochemical
Non-standard residues stand in square brackets, D forms with d. Residues, ends and D or L forms follow the SMILES beside them. ξ: configuration not given here. dPip = O=C(O)[C@H]1CCCCN1; ξAze = O=C(O)C1CCN1
Quick reference: Kass Human Thrombin of the listed items.
Use L/mol × 10^6 as the unit, but write only the number.

compound="CC(C)C1N[C@@H](C(=O)N2CCC[C@H]2C(=O)N[C@H](C=O)CCCNC(=N)N)C(C)(C)S1.Cl.Cl (stereo partly drawn)" assayed_system="human thrombin (Homo sapiens)" quantity_measured="Kass Human Thrombin" quantity_unit="L/mol × 10^6" measured_number=4
compound="Cl.Cl.N=C(N)NCCC[C@@H](C=O)NC(=O)[C@@H]1CCCN1C(=O)C1NCCCC2CCCCC21 (mixture of isomers)" assayed_system="human thrombin (Homo sapiens)" quantity_measured="Kass Human Thrombin" quantity_unit="L/mol × 10^6" measured_number=595
compound=CCC[C@](Cc1ccccc1)(NC(=O)OCC)C(=O)N1CCC[C@H]1C(=O)N[C@H](C=O)CCCNC(=N)N.Cl assayed_system="human thrombin (Homo sapiens)" quantity_measured="Kass Human Thrombin" quantity_unit="L/mol × 10^6" measured_number=47
compound="Cl.Cl.N=C(N)NCCC[C@@H](C=O)NC(=O)C1CCN1C(=O)[C@H]1CCCCN1 (stereo partly drawn) [Example 3] (H-[dPip]-[ξAze]-Arg-aldehyde)" assayed_system="human thrombin (Homo sapiens)" quantity_measured="Kass Human Thrombin" quantity_unit="L/mol × 10^6" measured_number=45
compound=Cl.Cl.Cl.N=C(N)NCCC[C@@H](C=O)NC(=O)[C@@H]1CCCN1C(=O)[C@H]1C[C@H](Sc2ccccc2)CN1.O.O.O assayed_system="human thrombin (Homo sapiens)" quantity_measured="Kass Human Thrombin" quantity_unit="L/mol × 10^6" measured_number=37

Please find the next compound below.
Inquiry: Given the compound Cl.Cl.N=C(N)NCCC[C@@H](C=O)NC(=O)[C@@H]1CCCN1C(=O)[C@H]1CCCCN1 [Example 1] (H-[dPip]-Pro-Arg-aldehyde) , what is its reported Kass Human Thrombin?
Reply text: 46

###

Molecular target: factor Xa (Homo sapiens)
Construct: Human factors X, Xa, IXa, XIa, and XIIa are purchased from Enzyme Research Laboratories; purchased Enzyme Research Laboratories, South Bend, Ind
Sequence (P00742 235-488 limits assumed): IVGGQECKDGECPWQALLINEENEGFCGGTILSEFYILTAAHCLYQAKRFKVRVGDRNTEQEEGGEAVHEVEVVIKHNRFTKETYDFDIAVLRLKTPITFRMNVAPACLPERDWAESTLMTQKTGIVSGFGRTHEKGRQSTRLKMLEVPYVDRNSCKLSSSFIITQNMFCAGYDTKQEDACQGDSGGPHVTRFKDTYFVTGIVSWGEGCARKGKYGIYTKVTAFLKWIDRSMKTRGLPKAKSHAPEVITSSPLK
Sequence (P00742 41-179 partner limits assumed): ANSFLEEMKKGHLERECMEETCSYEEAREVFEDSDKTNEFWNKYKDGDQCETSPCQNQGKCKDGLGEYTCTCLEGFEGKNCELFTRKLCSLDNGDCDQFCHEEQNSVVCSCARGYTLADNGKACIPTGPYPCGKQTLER
Assay: Serine protease inhibition (Kass), factor Xa
Type: biochemical
Kind request: treat 3 L/mol × 10^6 as inclusive, so Kass Xa at 3 L/mol × 10^6 or higher is T, anything lower is F.

Inquiry: Is Kass Xa for CCS(=O)(=O)N[C@H](Cc1ccccc1)C(=O)N1CCC[C@H]1C(=O)N[C@H](C=O)CCCNC(=N)N.Cl [Example 52] at or above 3 L/mol × 10^6?
Reply text: F

Inquiry: Quick check, Kass Xa >= 3 L/mol × 10^6? CCCN(CCC)S(=O)(=O)c1ccc(C(=O)N[C@H](Cc2ccccc2)C(=O)N2CCC[C@H]2C(=O)N[C@H](C=O)CCCNC(=N)N)cc1.Cl [Example 73]
Reply text: F

Inquiry: Decide: Kass Xa of Cl.N=C(N)NCCC[C@@H](C=O)NC(=O)[C@@H]1CCCN1C(=O)[C@@H](Cc1ccccc1)NS(=O)(=O)c1ccccc1 [Example 57] >= 3 L/mol × 10^6?
Reply text: T

Inquiry: Is Kass Xa for CCS(=O)(=O)N[C@@H](C(=O)N1CCC[C@H]1C(=O)N[C@H](C=O)CCCNC(=N)N)c1ccccc1.Cl [Example 64] at or above 3 L/mol × 10^6?
Reply text: T

Inquiry: Item Cl.N=C(N)NCCC[C@@H](C=O)NC(=O)[C@@H]1CCCN1C(=O)[C@@H](Cc1ccccc1)NS(=O)(=O)c1nccs1 [Example 63] with Kass Xa of 3 L/mol × 10^6 or above?
Reply text: F

Inquiry: Reported Kass Xa reaches at least 3 L/mol × 10^6 for Cl.Cl.N=C(N)NCCC[C@@H](C=O)NC(=O)[C@]1(Cc2ccccc2)CCCN1C(=O)[C@@H]1CCCN1 [Example 25] ?
Reply text: F

###

Measured Kass Human Thrombin by item
Biological target: human thrombin (Homo sapiens)
Experiment: Thrombin amidase inhibition (Kass), chromogenic substrate
Assay type: biochemical

Below are worked cases with known answers.
compound="Cl.Cl.N=C(N)NCCC[C@@H](C=O)NC(=O)[C@@H]1CCCN1C(=O)[C@@]1(Cc2ccccc2)CCCN1.O.O [Example 24]" result="12 L/mol × 10^6"
compound="CCCS(=O)(=O)N[C@H](Cc1ccccc1)C(=O)N1CCC[C@H]1C(=O)N[C@H](C=O)CCCNC(=N)N.Cl [Example 53]" result="1,700 L/mol × 10^6"
compound="Cl.Cl.Cn1c(C(=O)N[C@](C)(Cc2ccccc2)C(=O)N2CCC[C@H]2C(=O)N[C@H](C=O)CCCNC(=N)N)cc2ccccc21 [Example 30]" result="25 L/mol × 10^6"
compound="CN(C)S(=O)(=O)N[C@H](Cc1ccccc1)C(=O)N1CCC[C@H]1C(=O)N[C@H](C=O)CCCNC(=N)N.Cl [Example 56]" result="300 L/mol × 10^6"
compound="Cl.Cl.N=C(N)NCCC[C@@H](C=O)NC(=O)[C@@H]1CCCN1C(=O)C1NCCS1 (stereo partly shown) [Example 10]" result="27 L/mol × 10^6"
compound="CCS(=O)(=O)N[C@H](CC1CCCCC1)C(=O)N1CCC[C@H]1C(=O)N[C@H](C=O)CCCNC(=N)N.Cl [Example 65]" result="550 L/mol × 10^6"

Now for a further compound.
Inquiry: Look at this compound and give its reported Kass Human Thrombin. CCS(=O)(=O)N[C@@H](C(=O)N1CCC[C@H]1C(=O)N[C@H](C=O)CCCNC(=N)N)c1ccccc1.Cl [Example 64]
Reply text: 510 L/mol × 10^6

###

Molecular target: tissue plasminogen activator (t-PA) (Homo sapiens, UniProt P00750)
Construct: purchased American Diagnostica, Greenwich, Conn
Sequence (P00750 36-562): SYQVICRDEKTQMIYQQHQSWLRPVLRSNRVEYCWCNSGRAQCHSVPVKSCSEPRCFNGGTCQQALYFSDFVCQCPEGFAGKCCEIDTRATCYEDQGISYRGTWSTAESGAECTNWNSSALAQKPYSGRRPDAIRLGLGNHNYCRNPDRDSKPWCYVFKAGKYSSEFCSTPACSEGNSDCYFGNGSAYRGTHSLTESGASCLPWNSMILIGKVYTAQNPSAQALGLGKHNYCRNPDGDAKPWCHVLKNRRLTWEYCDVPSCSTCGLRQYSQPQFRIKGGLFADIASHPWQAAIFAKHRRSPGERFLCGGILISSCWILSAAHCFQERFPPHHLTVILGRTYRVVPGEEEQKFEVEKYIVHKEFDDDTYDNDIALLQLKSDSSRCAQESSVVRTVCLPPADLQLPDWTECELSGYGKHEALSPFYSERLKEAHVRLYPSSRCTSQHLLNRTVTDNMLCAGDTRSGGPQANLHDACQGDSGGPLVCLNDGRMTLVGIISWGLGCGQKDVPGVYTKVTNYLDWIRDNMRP
Assay: Serine protease inhibition (Kass), t-PA
Assay type: biochemical
Non-standard residues stand in square brackets, D forms with d. Residues, ends and D or L forms follow the SMILES beside them. dPip = O=C(O)[C@H]1CCCCN1
QUANTITY MEASURED: Kass t-PA (L/mol × 10^6)
Numbers only here, please. The scale is L/mol × 10^6.

Some solved entries appear below for comparison.
compound=Cl.N=C(N)NCCC[C@@H](C=O)NC(=O)[C@@H]1CCCN1C(=O)[C@@H](Cc1ccccc1)NC(=O)c1cccnc1 assayed_system="tissue plasminogen activator (t-PA) (Homo sapiens, UniProt P00750)" quantity_measured="Kass t-PA" measured_number=0.17
compound=Cl.N=C(N)NCCC[C@@H](C=O)NC(=O)[C@@H]1CCCN1C(=O)[C@@H](Cc1ccccc1)NC(=O)C(F)(F)F assayed_system="tissue plasminogen activator (t-PA) (Homo sapiens, UniProt P00750)" quantity_measured="Kass t-PA" measured_number=0.17
compound=CS(=O)(=O)N[C@H](Cc1ccccc1)C(=O)N1CCC[C@H]1C(=O)N[C@H](C=O)CCCNC(=N)N.Cl assayed_system="tissue plasminogen activator (t-PA) (Homo sapiens, UniProt P00750)" quantity_measured="Kass t-PA" measured_number=13
compound=COc1ccc(OC)c(S(=O)(=O)N[C@H](Cc2ccccc2)C(=O)N2CCC[C@H]2C(=O)N[C@H](C=O)CCCNC(=N)N)c1.Cl assayed_system="tissue plasminogen activator (t-PA) (Homo sapiens, UniProt P00750)" quantity_measured="Kass t-PA" measured_number=1.5
compound=CCS(=O)(=O)N[C@H](Cc1ccccc1)C(=O)N1CCC[C@H]1C(=O)N[C@H](C=O)CCCNC(=N)N.Cl assayed_system="tissue plasminogen activator (t-PA) (Homo sapiens, UniProt P00750)" quantity_measured="Kass t-PA" measured_number=2.9
compound=CCOC(=O)N[C@H](Cc1ccccc1)C(=O)N1CCC[C@H]1C(=O)N[C@H](C=O)CCCNC(=N)N.Cl assayed_system="tissue plasminogen activator (t-PA) (Homo sapiens, UniProt P00750)" quantity_measured="Kass t-PA" measured_number=2.5
compound="CCS(=O)(=O)NC(C)(C(=O)N1CCC[C@H]1C(=O)N[C@H](C=O)CCCNC(=N)N)c1ccccc1.Cl (stereo partly drawn)" assayed_system="tissue plasminogen activator (t-PA) (Homo sapiens, UniProt P00750)" quantity_measured="Kass t-PA" measured_number=0.023
compound=Cl.N=C(N)NCCC[C@@H](C=O)NC(=O)[C@@H]1CCCN1C(=O)[C@@H](Cc1ccccc1)NS(=O)(=O)c1ccc(C(=O)O)cc1 assayed_system="tissue plasminogen activator (t-PA) (Homo sapiens, UniProt P00750)" quantity_measured="Kass t-PA" measured_number=1.1

Inquiry: Hi! What's the reported Kass t-PA for Cl.Cn1c(C(=O)NC(C)(Cc2ccccc2)C(=O)N2CCC[C@H]2C(=O)N[C@H](C=O)CCCNC(=N)N)cc2ccccc21 (stereo partly drawn) on tissue plasminogen activator (t-PA) (Homo sapiens, UniProt P00750)?
Reply text: 0.009

Inquiry: Hello, I am looking for reported Kass t-PA with tissue plasminogen activator (t-PA) (Homo sapiens, UniProt P00750) for `COCC(=O)N[C@H](Cc1ccccc1)C(=O)N1CCC[C@H]1C(=O)N[C@H](C=O)CCCNC(=N)N.Cl` . Could you help?
Reply text: 0.30

Inquiry: Reported Kass t-PA for tissue plasminogen activator (t-PA) (Homo sapiens, UniProt P00750), given `CCNC(=O)N[C@H](Cc1ccccc1)C(=O)N1CCC[C@H]1C(=O)N[C@H](C=O)CCCNC(=N)N.Cl` ?
Reply text: 0.54

Inquiry: Query Kass t-PA on tissue plasminogen activator (t-PA) (Homo sapiens, UniProt P00750) for Cl.Cl.N=C(N)NCCC[C@@H](C=O)NC(=O)[C@@H]1CCCN1C(=O)C1(Cc2ccccc2)CCN1 (stereo partly drawn)
Reply text: 0.0028

Inquiry: Can you look up Kass t-PA on tissue plasminogen activator (t-PA) (Homo sapiens, UniProt P00750) for `CCS(=O)(=O)NC1(C(=O)N2CCC[C@H]2C(=O)N[C@H](C=O)CCCNC(=N)N)CCCCC1.Cl` ?
Reply text: 0.00034

Inquiry: Please provide the recorded Kass t-PA for Cl.Cl.N=C(N)NCCC[C@@H](C=O)NC(=O)[C@@H]1CCCN1C(=O)[C@H]1CCCCN1 [Example 1] (H-[dPip]-Pro-Arg-aldehyde) , tested on tissue plasminogen activator (t-PA) (Homo sapiens, UniProt P00750).
Reply text: 0.02

Inquiry: # get_value(readout= Kass t-PA, system= tissue plasminogen activator (t-PA) (Homo sapiens, UniProt P00750)) for `Cl.N=C(N)NCCC[C@@H](C=O)NC(=O)[C@@H]1CCCN1C(=O)[C@@H](Cc1ccccc1)NCC1CCCCC1`
Reply text: 0.046

Inquiry: API: value(readout= Kass t-PA, system= tissue plasminogen activator (t-PA) (Homo sapiens, UniProt P00750), query= `Cl.Cl.N=C(N)NCCC[C@@H](C=O)NC(=O)[C@]1(Cc2ccccc2)CCCN1C(=O)[C@@H]1CCCN1` )
Reply text: 0.0045

Inquiry: Param readout= Kass t-PA; system= tissue plasminogen activator (t-PA) (Homo sapiens, UniProt P00750); entry= `CC(=O)N[C@H](Cc1ccccc1)C(=O)N1CCC[C@H]1C(=O)N[C@H](C=O)CCCNC(=N)N.Cl` ; returns value.
Reply text: 0.11

Inquiry: Kass t-PA of `Cl.N=C(N)NCCC[C@@H](C=O)NC(=O)[C@@H]1CCCN1C(=O)[C@@H](Cc1ccccc1)NC(=O)Cc1ccccc1` on tissue plasminogen activator (t-PA) (Homo sapiens, UniProt P00750)?
Reply text: 0.37

Inquiry: I'm curious: which Kass t-PA was measured for `Cl.N=C(N)NCCC[C@@H](C=O)NC(=O)[C@@H]1CCCN1C(=O)[C@@H](Cc1ccccc1)NS(=O)(=O)c1ccc(F)cc1F` tested on tissue plasminogen activator (t-PA) (Homo sapiens, UniProt P00750)?
Reply text: 2.4

Inquiry: Find the measured Kass t-PA: item `CCOC(=O)N[C@](CC)(Cc1ccccc1)C(=O)N1CCC[C@H]1C(=O)N[C@H](C=O)CCCNC(=N)N.Cl` , target or system tissue plasminogen activator (t-PA) (Homo sapiens, UniProt P00750).
Reply text: 0.002

Inquiry: Param readout= Kass t-PA; system= tissue plasminogen activator (t-PA) (Homo sapiens, UniProt P00750); entry= `CCS(=O)(=O)N[C@@H](Cc1ccccc1)C(=O)N1CCC[C@@]1(C)C(=O)N[C@H](C=O)CCCNC(=N)N.Cl` ; returns value.
Reply text: 0.007

Inquiry: Find the measured Kass t-PA: item `CCCN(CCC)S(=O)(=O)c1ccc(C(=O)N[C@H](Cc2ccccc2)C(=O)N2CCC[C@H]2C(=O)N[C@H](C=O)CCCNC(=N)N)cc1.Cl` , target or system tissue plasminogen activator (t-PA) (Homo sapiens, UniProt P00750).
Reply text: 0.62

Inquiry: Enter reported Kass t-PA observed with tissue plasminogen activator (t-PA) (Homo sapiens, UniProt P00750) for CCOC(=O)NC(CC)(Cc1ccccc1)C(=O)N1CCC[C@H]1C(=O)N[C@H](C=O)CCCNC(=N)N.Cl (stereo partly drawn)
Reply text: 0.001

Inquiry: What is its Kass t-PA for tissue plasminogen activator (t-PA) (Homo sapiens, UniProt P00750)? Entry: `CCOC(=O)N[C@H](CC1CCCCC1)C(=O)N1CCC[C@H]1C(=O)N[C@H](C=O)CCCNC(=N)N.Cl`
Reply text: 0.75

Inquiry: # get_value(readout= Kass t-PA, system= tissue plasminogen activator (t-PA) (Homo sapiens, UniProt P00750)) for `Cl.Cn1c(C(=O)N[C@H](Cc2ccccc2)C(=O)N2CCC[C@H]2C(=O)N[C@H](C=O)CCCNC(=N)N)cc2ccccc21`
Reply text: 31
